src = patent US20240076343A1

Tested Target: T1, recombinant His-tagged human PD-1 (Acro Biosystems) (human, UniProt Q15116 25-167)
T1 construct: His-tagged; also called hPD-1
T1 sequence (Q15116 25-167 limits assumed): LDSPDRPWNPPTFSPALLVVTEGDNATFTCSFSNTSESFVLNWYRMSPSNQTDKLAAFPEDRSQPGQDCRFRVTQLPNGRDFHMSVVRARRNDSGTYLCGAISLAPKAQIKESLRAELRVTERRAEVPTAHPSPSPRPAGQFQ
Assay Comment: SPR Carterra LSA;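 further: antibodies or fusion proteins amine-coupled on an HC30M chip, soluble His-tagged human or cynomolgus PD-1 titrated over them, non-regenerative kinetics, constants fitted from titration curves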
Overview of reported koff across a group of binders:

Binder | koff [s⁻¹]
D12-hIgG4 (antibody, V domains shown) VH: DVQLVESGGGLVQPGGSLRLSCAASGFTFDISAMSWVRQAPGKGLEWVSTISGSAYSTYYADSVKGRFTISRDNSKSTLYLQMNSLRAEDTAVYYCAREIFSDYWGLGTLVTVSS VL: QSVLTQPPSASGTPGQRVTISCSGNTSNIGRESVYWYQQLPGTAPKLLIYSNVQRPSGVPDRFSGSKSGTSASLAISGLQSEDEADYYCGTWDDSLNGWVFGGGTKLTVLG | 0.00046
OMC.1.B6-hIgG4 (antibody, V domains shown) VH: EVQLLESGGGLVQPGGSLRLSCAASGFTFSSNYMSWVRQAPGKGLEWVSAISSSGGTIFYADSVKGRFTISRDNSKNTLYLQMNSLRAEDTAVYYCAKHKWNAVYYDGMDVWGQGTTVTVSS VL: QSVLTQPPSASGTPGQRVTISCSGSNSNIGRNLVNWYQQLPGTAPKLLIYTIDQRPSGVPDRFSGSKSGTSASLVISGLQSEDEADYYCAAWDGSLNAWVFGGGTKLTVLG | 0.004
